Experiment: Therapeutic index was determined
Conditions: read-out: Therapeutic index
Kindly state selectivity ratio for each of the entries shown.
API doc: respond with a numeric literal and nothing else, no unit.

Query: For CCNS(=O)(=O)Oc1cc(C(C)(C)C)c(SC2=C(O)OC(CCc3ccc(O)cc3)(C3CCCCC3)CC2=O)cc1C (stereo unspecified) , what is its reported selectivity ratio?
Reply: 48

Query: Requested read-out: selectivity ratio. Entry: Cc1cc(SC2=C(O)OC(CCc3ccc(N)cc3)(C(C)C)CC2=O)c(C(C)(C)C)cc1OS(=O)(=O)N1CCN(C)CC1 (stereo unspecified)
Reply: 127

Query: Query (compound): CCNS(=O)(=O)Oc1cc(C(C)(C)C)c(SC2=C(O)OC(C)(CCc3ccc(O)cc3)CC2=O)cc1C (stereo unspecified) ; field requested: selectivity ratio
Reply: 44

###

Target: Human immunodeficiency virus type 1 protease (Human immunodeficiency virus 1, UniProt Q72874)
MEASURE: pIC50
pIC50 field: float, defined as -log10 of concentration (mol/L).

Query: I would be grateful if you could share the reported pIC50 for CCNS(=O)(=O)Oc1cc(C(C)(C)C)c(SC2=C(O)OC(CCc3ccc(O)cc3)(C3CCCCC3)CC2=O)cc1C (stereo not drawn) .
Reply: 8.32

Query: Reported pIC50 for CCCNS(=O)(=O)Oc1cc(C(C)(C)C)c(SC2=C(O)OC(C)(CCc3ccc(O)cc3)CC2=O)cc1C (stereo not drawn) : what is it?
Reply: 8.21

Query: Consider the molecule shown here: Cc1cc(SC2=C(O)OC(C)(CCc3ccc(O)cc3)CC2=O)c(C(C)(C)C)cc1OS(=O)(=O)N1CCN(C)CC1 (stereo not drawn) What is its recorded pIC50?
Reply: 8.15

Query: Given Cc1cc(SC2=C(O)OC(CCc3ccccc3)(C(C)C)CC2=O)c(C(C)(C)C)cc1OS(=O)(=O)N1CCN(C)CC1 (stereo not drawn) , state its recorded pIC50.
Reply: 8.41

Query: Please look up its pIC50: Cc1cc(SC2=C(O)O[C@](CCc3ccc(N)cc3)(C(C)C)CC2=O)c(C(C)(C)C)cc1CO
Reply: 9.00

Query: Report pIC50 for CCNS(=O)(=O)Oc1cc(C(C)(C)C)c(SC2=C(O)OC(CCc3ccc(O)cc3)(C(C)C)CC2=O)cc1C (stereo not drawn) please.
Reply: 8.31

Query: # lookup: pIC50 of Cc1cc(SC2=C(O)OC(CCc3ccc(O)cc3)(C(C)C)CC2=O)c(C(C)(C)C)cc1OS(=O)(=O)N(C)C (stereo not drawn)
Reply: 8.47

Query: Which pIC50 value belongs to CCCNS(=O)(=O)Oc1cc(C(C)(C)C)c(SC2=C(O)OC(CCc3ccc(O)cc3)(C(C)C)CC2=O)cc1C (stereo not drawn) ?
Reply: 8.52

###

Assay: Therapeutic index was determined
Details: read-out: Therapeutic index
Hi there, I'd appreciate the recorded selectivity ratio for every entry that follows.

Query: Endpoint output: selectivity ratio of Cc1cc(SC2=C(O)OC(C)(CCc3ccc(O)cc3)CC2=O)c(C(C)(C)C)cc1O (stereo not drawn) . Value?
Reply: < 1

Query: Data request, read-out selectivity ratio, for CNS(=O)(=O)Oc1cc(C(C)(C)C)c(SC2=C(O)OC(CCc3ccc(O)cc3)(C(C)C)CC2=O)cc1C (stereo not drawn)
Reply: > 91

Query: // returns reported selectivity ratio for input Cc1cc(SC2=C(O)OC(C)(CCc3ccc(O)cc3)CC2=O)c(C(C)(C)C)cc1OS(=O)(=O)N(C)C (stereo not drawn)
Reply: > 12
